target: T1, human epidermal growth factor receptor antigen (human, UniProt P00533 25-645, limits assumed); assay: SPR (Biacore T200), 37 C, scFv-Fc, 0 uM MTX
T1 construct: whole entry named; also called EGFR
measure: koff (s⁻¹)

binder="P01_B06 scFv-Fc fusion (scFv, V domains shown, Tested as scFv-Fc fusion) VH: QVQLVESGGGLVQAGGSLRLSCAASRRSSRSWAMHWVRQAPGKGLEWVAVISYDGRLKYYADSVKGRFTISRDNAEYLVYLQMNSLRAEDTAVYYCAADTSMFASYDPMDVWGQGTLVTVSS VL: QSVLTQPPSASGTPGQRVTISCSGSSSNIGRNYVNWYQQLPGTAPKLLIYRDDHRPSGVPDRFSGSKSGTSASLAISGLRSEDEADYYCASWDDTLSGWVFGTGTKLTVL" measure=koff unit_info=s⁻¹ quantitative_readout=0.024

Data provenance: patent US20230192839A1
